- Test system: Enterococcus faecium
- assay.notes: Antibacterial activity against glycopeptide resistant Enterococcus faecium 569 strain
- Assay type: functional
measured.endpoint: MIC (µg/mL)
Use µg/mL as the unit, but write only the number.

CCCCCCCCCCNC(=O)[C@H]1NC(=O)[C@H]2NC(=O)[C@H](NC(=O)[C@@H]3NC(=O)[C@H](CC(N)=O)NC(=O)[C@H](NC(=O)[C@@H](CC(C)C)NC)[C@H](O)c4ccc(c(Cl)c4)Oc4cc3cc(c4O[C@@H]3O[C@H](CO)[C@@H](O)[C@H](O)[C@H]3O[C@H]3C[C@](C)(N)[C@@H](O)[C@H](C)O3)Oc3ccc(cc3)[C@H]2O[C@H]2C[C@](C)(N)[C@@H](O)[C@H](C)O2)c2ccc(O)c(c2)-c2c(O)cc(O)cc21 ... 2
CN[C@H](CC(C)C)C(=O)N[C@H]1C(=O)N[C@@H](CC(N)=O)C(=O)N[C@H]2C(=O)N[C@H]3C(=O)N[C@H](C(=O)N[C@H](C(=O)NCc4ccc(-c5ccc(Cl)cc5)cc4)c4cc(O)cc(O)c4-c4cc3ccc4O)[C@H](O)c3ccc(cc3)Oc3cc2cc(c3O)Oc2ccc(cc2Cl)[C@H]1O ... 8

Proceeding to the next molecule to report its MIC.
Quickly give me recorded MIC for C[C@@H]1O[C@@H](O[C@H]2[C@H](Oc3c4cc5cc3Oc3ccc(cc3Cl)[C@@H](O)[C@@H](N)C(=O)N[C@@H](CC(N)=O)C(=O)N[C@H]5C(=O)N[C@H]3C(=O)N[C@H](C(=O)N[C@H](C(=O)NCc5ccc(-c6ccc(Cl)cc6)cc5)c5cc(O)cc(O)c5-c5cc3ccc5O)[C@H](O[C@H]3C[C@](C)(N)[C@@H](O)[C@H](C)O3)c3ccc(cc3)O4)O[C@H](CO)[C@@H](O)[C@@H]2O)C[C@](C)(N)[C@H]1O
2
